Measured values drawn from patent US20200055939A1 for this set.

- target-entity: T1, MICA*008 on MEL-JUSO cells (human, UniProt Q29983 24-317); note: test concentration or dose not given here
- T1 chain: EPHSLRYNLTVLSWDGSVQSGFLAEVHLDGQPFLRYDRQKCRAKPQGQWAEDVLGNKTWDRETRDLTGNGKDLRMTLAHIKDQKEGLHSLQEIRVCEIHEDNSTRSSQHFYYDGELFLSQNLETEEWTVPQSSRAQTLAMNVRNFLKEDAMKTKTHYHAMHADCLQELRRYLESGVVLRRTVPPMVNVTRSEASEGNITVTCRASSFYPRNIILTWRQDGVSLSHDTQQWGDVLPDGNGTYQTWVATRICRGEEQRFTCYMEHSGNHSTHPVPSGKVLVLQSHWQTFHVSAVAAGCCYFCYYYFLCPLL
- protocol-text: cell-based or functional assay
Exercise: for every item that follows, state its recorded % Inhibition.
// return numeric value only (unit: %, not printed)

// field: % Inhibition; key: 1D5v5 (antibody, IgG1, V domains shown, humanized variant of 1D5) VH: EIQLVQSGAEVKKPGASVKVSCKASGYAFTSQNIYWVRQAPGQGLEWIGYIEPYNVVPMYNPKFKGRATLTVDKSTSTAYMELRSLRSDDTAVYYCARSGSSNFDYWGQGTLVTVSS VL: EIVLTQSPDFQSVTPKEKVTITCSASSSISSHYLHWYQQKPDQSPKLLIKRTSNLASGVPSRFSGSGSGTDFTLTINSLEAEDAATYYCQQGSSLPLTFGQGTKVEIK ; value = 36

// field: % Inhibition; key: 1D5v7 (antibody, IgG1, V domains shown, humanized variant of 1D5) VH: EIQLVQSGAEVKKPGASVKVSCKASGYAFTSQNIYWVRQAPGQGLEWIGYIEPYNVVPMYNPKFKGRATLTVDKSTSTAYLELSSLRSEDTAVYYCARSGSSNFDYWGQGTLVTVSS VL: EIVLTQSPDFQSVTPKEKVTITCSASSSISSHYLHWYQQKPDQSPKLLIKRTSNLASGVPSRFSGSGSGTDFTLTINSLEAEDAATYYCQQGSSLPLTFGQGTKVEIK ; value = 51

// field: % Inhibition; key: 1D5v25 (antibody, IgG1, V domains shown, humanized variant of 1D5) VH: EVQLVQSGAEVKKPGASVKVSCKASGYAFTSQNIYWVRQAPGQGLEWIGYIEPYNVVPMYNPKFKGRVTITVDTSTSTAYLELSSLRSEDTAVYYCARSGSSNFDYWGQGTLVTVSS VL: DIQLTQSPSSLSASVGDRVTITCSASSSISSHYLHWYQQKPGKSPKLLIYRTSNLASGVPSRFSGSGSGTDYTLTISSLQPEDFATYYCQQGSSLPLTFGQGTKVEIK ; value = 62

// field: % Inhibition; key: 6E1.1.12 (antibody, V domains shown, mouse variable domains) VH: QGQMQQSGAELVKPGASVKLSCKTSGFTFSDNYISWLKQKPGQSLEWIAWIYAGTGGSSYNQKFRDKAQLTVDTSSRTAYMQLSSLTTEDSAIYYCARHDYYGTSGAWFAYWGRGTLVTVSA VL: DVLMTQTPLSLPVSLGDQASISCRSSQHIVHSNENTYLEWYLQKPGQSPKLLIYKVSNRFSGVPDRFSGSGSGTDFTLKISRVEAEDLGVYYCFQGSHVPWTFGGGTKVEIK ; value = 31

// field: % Inhibition; key: 13A9v4 (antibody, IgG1, V domains shown, humanized variant of 13A9) VH: EVQLVQSGAEVKKPGASVKVSCKASGYAFTNYLIEWVRQAPGQGLEWIGAINPGSGATNYNEKFKDRATLTADKSTNTAYLELSSLRSEDTAVYFCARFLGNYFDNWGQGTLVTVSS VL: DIQMTQSPSSLSASVGDRVTITCRASGNIHSYLAWYQQKPGKSPKLLVYYAETLADGVPSRFSGSGSGTDYTLTISSLQPEDFATYFCQQFWTTPYTFGQGTKVEIK ; value = -31

// field: % Inhibition; key: 13A9v3 (antibody, IgG1, V domains shown, humanized variant of 13A9) VH: EVQLVQSGAEVKKPGASVKVSCKASGYAFTNYLIEWVRQAPGQGLEWIGAINPGSGATNYNEKFKDRVTITADTSTSTAYLELSSLRSEDTAVYYCARFLGNYFDNWGQGTLVTVSS VL: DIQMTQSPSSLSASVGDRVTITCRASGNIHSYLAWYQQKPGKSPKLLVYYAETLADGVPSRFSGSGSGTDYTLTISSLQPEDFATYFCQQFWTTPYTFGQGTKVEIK ; value = 2

// field: % Inhibition; key: 1D5v29 (antibody, IgG1, V domains shown, humanized variant of 1D5) VH: EIQLVQSGAEVKKPGASVKVSCKASGYAFTSQNIYWVRQAPGQGLEWIGYIEPYNVVPVYNPKFKGRATLTVDKSTSTAYLELSSLRSEDTAVYYCARSGSSNFDYWGQGTLVTVSS VL: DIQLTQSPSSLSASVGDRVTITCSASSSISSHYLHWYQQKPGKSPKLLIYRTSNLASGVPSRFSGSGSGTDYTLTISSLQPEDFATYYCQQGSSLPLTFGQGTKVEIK ; value = 57

// field: % Inhibition; key: 1D5v21 (antibody, IgG1, V domains shown, humanized variant of 1D5) VH: EIQLVQSGAEVKKPGASVKVSCKASGYAFTSQNIYWVRQAPGQGLEWIGYIEPYNVVPMYNPKFKGRATITVDKSTSTAYLELSSLRSEDTAVYYCARSGSSNFDYWGQGTLVTVSS VL: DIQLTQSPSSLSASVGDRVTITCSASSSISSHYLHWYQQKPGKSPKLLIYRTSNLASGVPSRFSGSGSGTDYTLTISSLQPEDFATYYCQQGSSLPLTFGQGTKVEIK ; value = 62

// field: % Inhibition; key: 1D5v26 (antibody, IgG1, V domains shown, humanized variant of 1D5) VH: EVQLVQSGAEVKKPGASVKVSCKASGYAFTSQNIYWVRQAPGQGLEWIGYIEPYNVVPMYNPKFKGRVTITRDKSTSTAYLELSSLRSEDTAVYYCARSGSSNFDYWGQGTLVTVSS VL: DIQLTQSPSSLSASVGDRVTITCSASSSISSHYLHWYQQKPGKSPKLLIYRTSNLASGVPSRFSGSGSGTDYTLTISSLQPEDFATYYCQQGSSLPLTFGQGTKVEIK ; value = 50

// field: % Inhibition; key: 1D5v11 (antibody, IgG1, V domains shown, humanized variant of 1D5) VH: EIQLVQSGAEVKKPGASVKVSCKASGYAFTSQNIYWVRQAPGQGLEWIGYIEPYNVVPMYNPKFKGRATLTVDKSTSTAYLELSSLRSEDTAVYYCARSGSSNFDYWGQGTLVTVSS VL: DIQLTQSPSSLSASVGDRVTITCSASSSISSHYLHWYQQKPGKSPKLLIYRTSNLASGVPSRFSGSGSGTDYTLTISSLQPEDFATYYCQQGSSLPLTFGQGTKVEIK ; value = 56
